target: integrin α4β1 (Homo sapiens, UniProt P05556+P13612); construct: endogenous in cells; assay: Inhibition of α4β1-dependent cell adhesion (Jurkat cells to peptide CS-1); conditions: adhesion of Jurkat cells to CS-1-coated plates; products preincubated with cells at 37° C. for 30 minutes; at least 6 product concentrations
Sequence (P13612 34-1032): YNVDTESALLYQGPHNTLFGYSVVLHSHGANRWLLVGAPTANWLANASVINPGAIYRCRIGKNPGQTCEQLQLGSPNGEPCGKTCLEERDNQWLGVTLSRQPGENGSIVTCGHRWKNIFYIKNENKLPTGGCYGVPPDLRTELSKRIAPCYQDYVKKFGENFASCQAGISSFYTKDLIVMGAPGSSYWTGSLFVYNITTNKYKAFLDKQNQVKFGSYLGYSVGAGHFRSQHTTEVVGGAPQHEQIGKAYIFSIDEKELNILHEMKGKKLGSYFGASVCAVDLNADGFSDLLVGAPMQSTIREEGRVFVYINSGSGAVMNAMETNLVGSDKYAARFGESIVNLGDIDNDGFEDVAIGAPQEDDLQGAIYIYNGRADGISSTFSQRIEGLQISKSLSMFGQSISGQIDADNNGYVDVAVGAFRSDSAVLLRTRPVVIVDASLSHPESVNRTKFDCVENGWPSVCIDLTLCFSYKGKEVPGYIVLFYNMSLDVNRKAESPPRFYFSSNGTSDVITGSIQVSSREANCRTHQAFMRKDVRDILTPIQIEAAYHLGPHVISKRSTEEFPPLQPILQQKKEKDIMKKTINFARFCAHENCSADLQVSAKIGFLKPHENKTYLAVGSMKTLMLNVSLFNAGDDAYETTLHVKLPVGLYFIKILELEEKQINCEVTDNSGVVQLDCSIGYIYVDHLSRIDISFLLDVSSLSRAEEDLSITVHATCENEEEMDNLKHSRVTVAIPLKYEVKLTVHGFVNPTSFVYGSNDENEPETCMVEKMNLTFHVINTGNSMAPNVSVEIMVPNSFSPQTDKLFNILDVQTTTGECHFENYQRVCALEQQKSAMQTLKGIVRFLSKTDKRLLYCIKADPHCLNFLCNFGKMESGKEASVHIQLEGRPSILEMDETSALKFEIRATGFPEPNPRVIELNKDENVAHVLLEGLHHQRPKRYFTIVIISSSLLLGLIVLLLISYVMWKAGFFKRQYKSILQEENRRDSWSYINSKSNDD
Sequence (P05556 21-798): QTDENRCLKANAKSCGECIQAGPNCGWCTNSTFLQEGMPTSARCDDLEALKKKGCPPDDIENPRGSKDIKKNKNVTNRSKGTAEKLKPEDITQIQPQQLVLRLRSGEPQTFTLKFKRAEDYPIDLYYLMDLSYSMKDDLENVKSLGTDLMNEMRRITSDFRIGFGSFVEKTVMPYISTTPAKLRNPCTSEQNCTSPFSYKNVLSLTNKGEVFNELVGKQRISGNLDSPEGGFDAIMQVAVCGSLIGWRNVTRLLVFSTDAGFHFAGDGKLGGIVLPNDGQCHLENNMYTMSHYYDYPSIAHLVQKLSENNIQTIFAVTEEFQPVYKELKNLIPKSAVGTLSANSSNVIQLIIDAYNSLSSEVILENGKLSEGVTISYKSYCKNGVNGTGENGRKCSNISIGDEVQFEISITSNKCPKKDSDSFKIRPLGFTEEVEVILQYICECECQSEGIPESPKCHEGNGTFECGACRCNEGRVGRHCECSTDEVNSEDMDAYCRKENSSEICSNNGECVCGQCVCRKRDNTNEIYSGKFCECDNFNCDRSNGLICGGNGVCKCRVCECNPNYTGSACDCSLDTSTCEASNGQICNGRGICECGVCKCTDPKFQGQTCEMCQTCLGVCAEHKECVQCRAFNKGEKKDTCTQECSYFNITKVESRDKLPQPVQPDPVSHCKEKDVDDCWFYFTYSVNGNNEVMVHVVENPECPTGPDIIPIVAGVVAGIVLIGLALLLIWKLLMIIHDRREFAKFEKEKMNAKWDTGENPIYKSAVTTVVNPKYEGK
IC50 values, listed per item

| COMPOUND_STRUCTURE | TARGET_OR_SYSTEM | IC50 |
| --- | --- | --- |
| Cc1ccc(S(=O)(=O)N2CCC[C@H]2C(=O)N[C@@H](CCC(=O)N2CCC(CNc3nccc(C(F)(F)F)n3)CC2)C(=O)O)cc1 | integrin α4β1 (Homo sapiens, UniProt P05556+P13612) | 193 nM |

## Input Give IC50 for CC(C)Nc1nc2cnccc2n1CC1CCN(C(=O)CC[C@H](NC(=O)[C@@H]2CCCN2S(=O)(=O)c2cc(Cl)cc(Cl)c2)C(=O)O)CC1 tested on integrin α4β1 (Homo sapiens, UniProt P05556+P13612).
## Output 14.1 nM

## Input Give IC50 for O=C(O)[C@H](CCC(=O)N1CCC(CCN2CCOCC2)CC1)NC(=O)[C@@H]1CCCN1S(=O)(=O)c1cc(Cl)cc(Cl)c1 tested on integrin α4β1 (Homo sapiens, UniProt P05556+P13612).
## Output 0.5 nM

## Input Give IC50 for Cc1ccc(S(=O)(=O)N2CCC[C@H]2C(=O)N[C@@H](CCC(=O)N2CCC(CN3CCCC3=O)CC2)C(=O)O)cc1 tested on integrin α4β1 (Homo sapiens, UniProt P05556+P13612).
## Output 188 nM

## Input Give IC50 for Cc1nc2cnccc2n1CC1CCN(C(=O)NC[C@H](NC(=O)[C@@H]2CCCN2S(=O)(=O)c2cc(Cl)cc(Cl)c2)C(=O)O)CC1 tested on integrin α4β1 (Homo sapiens, UniProt P05556+P13612).
## Output 7.7 nM

## Input Give IC50 for O=C(O)[C@H](CCC(=O)N1CCC(CCOC(=O)N2CCN(c3ccccc3)CC2)CC1)NC(=O)[C@@H]1CCCN1S(=O)(=O)c1cc(Cl)cc(Cl)c1 tested on integrin α4β1 (Homo sapiens, UniProt P05556+P13612).
## Output 135 nM
